# Assay protocol: Binding affinity towards low-affinity site of Atrial natriuretic peptide receptor 1 of rabbit adrenal membrane
# Assay type: tissue-based
As shown below, each of these compounds has a reported KL value.

[
  {
    "Smiles repr": "CC[C@H](C)[C@@H]1NC(=O)[C@@H](CCCN=C(N)N)NC(=O)CNC(=O)CNC(=O)[C@@H](Cc2ccccc2)NC(=O)CNC(=O)[C@H](NC(=O)[C@H](CO)NC(=O)[C@@H](N)CO)CSSC[C@H](C(=O)N[C@H](Cc2ccccc2)C(=O)N[C@@H](CCCN=C(N)N)C(=O)O)NC(=O)[C@@H]([C@@H](C)CC)NC(=O)[C@H](CCCN=C(N)N)NC(=O)[C@@H](CC(=O)O)NC1=O",
    "KL / nM": 620
  },
  {
    "Smiles repr": "CC[C@H](C)[C@@H]1NC(=O)[C@@H](CCCN=C(N)N)NC(=O)CNC(=O)CNC(=O)[C@@H](Cc2ccccc2)NC(=O)CNC(=O)[C@H](NC(=O)[C@H](CO)NC(=O)[C@@H](N)CO)CSSC[C@H](C(=O)N[C@H](Cc2ccccc2)C(=O)N[C@H](CCCN=C(N)N)C(=O)O)NC(=O)[C@@H]([C@@H](C)CC)NC(=O)[C@H](CCCN=C(N)N)NC(=O)[C@@H](CC(=O)OC)NC1=O",
    "KL / nM": 1400
  },
  {
    "Smiles repr": "CC[C@H](C)[C@@H]1NC(=O)[C@@H](CCCN=C(N)N)NC(=O)CNC(=O)CNC(=O)[C@@H](Cc2ccccc2)NC(=O)CNC(=O)[C@H](NC(=O)[C@H](CO)NC(=O)[C@@H](N)CO)CSSC[C@H](C(=O)N[C@H](Cc2ccccc2)C(=O)NCC(=O)O)NC(=O)[C@@H]([C@@H](C)CC)NC(=O)[C@H](CCCN=C(N)N)NC(=O)[C@@H](CC(=O)O)NC1=O",
    "KL / nM": 3100
  },
  {
    "Smiles repr": "CC[C@H](C)[C@@H]1NC(=O)[C@H](CCCN=C(N)N)NC(=O)[C@@H](CC(=O)O)NC(=O)[C@H]([C@@H](C)CC)NC(=O)[C@@H](CCCN=C(N)N)NC(=O)CNC(=O)CNC(=O)[C@@H](Cc2ccccc2)NC(=O)CNC(=O)[C@@H](NC(=O)[C@H](CO)NC(=O)[C@@H](N)CO)CSSC[C@@H](C(=O)N[C@H](Cc2ccccc2)C(=O)N[C@@H](CCCCN=C(N)N)C(=O)O)NC1=O",
    "KL / nM": 320
  },
  {
    "Smiles repr": "CC[C@H](C)[C@@H]1NC(=O)[C@@H](CCCN=C(N)N)NC(=O)CNC(=O)CNC(=O)[C@@H](Cc2ccccc2)NC(=O)[C@@H](C)NC(=O)[C@H](NC(=O)[C@H](CO)NC(=O)[C@@H](N)CO)CSSC[C@H](C(=O)N[C@H](Cc2ccccc2)C(=O)N[C@H](CCCN=C(N)N)C(=O)O)NC(=O)[C@@H]([C@@H](C)CC)NC(=O)[C@H](CC(=O)O)NC(=O)[C@@H](CCCN=C(N)N)NC1=O",
    "KL / nM": 7800
  }
]

====

# Assay protocol: Binding affinity towards low-affinity site of Atrial natriuretic peptide receptor 1 of rabbit adrenal membrane
# Type: tissue-based

[
  {
    "Molecule": "CC[C@H](C)[C@@H]1NC(=O)[C@@H](CCCN=C(N)N)NC(=O)CNC(=O)CNC(=O)[C@@H](C2CCCCC2)NC(=O)[C@H](NC(=O)[C@H](N)Cc2c[nH]cn2)CSSC[C@H](C(N)=O)NC(=O)[C@@H](CCCN=C(N)N)NC(=O)[C@H](Cc2ccccc2)NC(=O)[C@@H]([C@@H](C)CC)NC(=O)[C@H](CCCN=C(N)N)NC(=O)[C@@H](CC(=O)O)NC1=O",
    "Unit string": "nM",
    "KL": 190
  },
  {
    "Molecule": "CC[C@H](C)[C@@H]1NC(=O)[C@@H](CCCN=C(N)N)NC(=O)CNC(=O)CNC(=O)[C@@H](Cc2ccccc2)N(C)C(=O)C(C)NC(=O)[C@H](NC(=O)[C@H](CO)NC(=O)[C@@H](N)CO)CSSC[C@H](C(=O)N[C@H](Cc2ccccc2)C(=O)N[C@H](CCCN=C(N)N)C(=O)O)NC(=O)[C@@H]([C@@H](C)CC)NC(=O)[C@H](CCCN=C(N)N)NC(=O)[C@@H](CC(=O)O)NC1=O (stereo in doubt)",
    "Unit string": "nM",
    "KL": 290
  },
  {
    "Molecule": "CC[C@H](C)[C@@H]1NC(=O)[C@@H](CCCN=C(N)N)NC(=O)CNC(=O)CNC(=O)[C@@H](C2CCCCC2)NC(=O)[C@H](NC(=O)[C@H](N)CCCN=C(N)N)CSSC[C@H](C(N)=O)NC(=O)[C@@H](CCCN=C(N)N)NC(=O)[C@@H]2Cc3ccccc3CN2C(=O)[C@@H]([C@@H](C)CC)NC(=O)[C@H](CCCN=C(N)N)NC(=O)[C@@H](CC(=O)O)NC1=O",
    "Unit string": "nM",
    "KL": 270
  },
  {
    "Molecule": "CC[C@H](C)[C@@H]1NC(=O)[C@@H](CCCN=C(N)N)NC(=O)CNC(=O)CNC(=O)[C@@H](Cc2ccccc2)NC(=O)[C@H](NC(=O)[C@H](N)CCCN=C(N)N)CSSC[C@H](C(=O)O)NC(=O)[C@@H](CCCN=C(N)N)NC(=O)[C@H](Cc2ccccc2)NC(=O)[C@@H]([C@@H](C)CC)NC(=O)[C@H](CCCN=C(N)N)NC(=O)[C@@H](CC(=O)O)NC1=O",
    "Unit string": "nM",
    "KL": 660
  },
  {
    "Molecule": "CC[C@H](C)[C@@H]1NC(=O)[C@@H](CCCN=C(N)N)NC(=O)CNC(=O)CNC(=O)[C@@H](Cc2ccccc2)NC(=O)[C@@H](C)NC(=O)[C@H](NC(=O)[C@H](CO)NC(=O)[C@@H](N)CO)CSSC[C@H](C(=O)N[C@H](Cc2ccccc2)C(=O)N[C@H](CCCN=C(N)N)C(=O)O)NC(=O)[C@@H]([C@@H](C)CC)NC(=O)[C@H](CCCN=C(N)N)NC(=O)[C@@H](C)NC1=O",
    "Unit string": "nM",
    "KL": 1000
  },
  {
    "Molecule": "CC[C@H](C)[C@@H]1NC(=O)[C@@H](CCCN=C(N)N)NC(=O)CNC(=O)CNC(=O)[C@@H](C2CCCCC2)NC(=O)CCSSC[C@H](C(N)=O)NC(=O)[C@@H](CCCN=C(N)N)NC(=O)[C@H](Cc2ccccc2)NC(=O)[C@@H]([C@@H](C)CC)NC(=O)[C@H](CCCN=C(N)N)NC(=O)[C@@H](CC(=O)O)NC1=O",
    "Unit string": "nM",
    "KL": 300
  }
]

====

# System: Atrial natriuretic peptide receptor 1 (Oryctolagus cuniculus)
# Assay protocol: Binding affinity towards the low-affinity site atrionatriuretic peptide receptor 1 of rabbit adrenal membrane

[
  {
    "Smiles repr": "CC[C@H](C)[C@@H]1NC(=O)[C@@H](CCCN=C(N)N)NC(=O)[C@H](CC(=O)O)NC(=O)[C@@H]([C@@H](C)CC)NC(=O)[C@H](CCCN=C(N)N)NC(=O)CNC(=O)CNC(=O)[C@H](Cc2ccccc2)NC(=O)CN(C)C(=O)[C@@H](NC(=O)[C@@H](CO)NC(=O)[C@H](N)CO)CSSC[C@@H](C(=O)N[C@H](Cc2ccccc2)C(=O)N[C@H](CCCN=C(N)N)C(=O)O)NC1=O",
    "Target": "Atrial natriuretic peptide receptor 1 (Oryctolagus cuniculus)",
    "KL, nM": 410
  }
]

====

# Assay protocol: In vitro Biological half-life in crude homogenate of rabbit renal cortex
# Type: ADME, Oryctolagus cuniculus

[
  {
    "Smiles repr": "CC[C@H](C)[C@@H]1NC(=O)[C@H](CCCN=C(N)N)NC(=O)CNC(=O)CNC(=O)[C@H](Cc2ccccc2)NC(=O)[C@@H](NC(=O)[C@H](CO)NC(=O)[C@@H](N)CO)CSSC[C@@H](C(=O)O)NC(=O)[C@H](CCCN=C(N)N)NC(=O)[C@H](Cc2ccccc2)NC(=O)[C@H]([C@@H](C)CC)NC(=O)[C@H](CCCN=C(N)N)NC(=O)[C@H](CC(=O)O)NC1=O",
    "half-life": "< 2 min"
  }
]

====

# Tested on: Atrial natriuretic peptide receptor 1 (Oryctolagus cuniculus)
# Assay protocol: Binding affinity towards the low-affinity site atrionatriuretic peptide receptor 1 of rabbit adrenal membrane
As shown below, each of these compounds has a reported KL value.

[
  {
    "Smiles repr": "CC[C@H](C)[C@@H]1NC(=O)[C@@H](CCCN=C(N)N)NC(=O)[C@@H](C)NC(=O)[C@@H](C)NC(=O)[C@@H](C2CCCCC2)NC(=O)[C@H](NC(=O)[C@H](N)CCCN=C(N)N)CSSC[C@H](C(N)=O)NC(=O)[C@@H](CCCN=C(N)N)NC(=O)[C@H](Cc2ccccc2)NC(=O)[C@@H]([C@@H](C)CC)NC(=O)[C@H](CCCN=C(N)N)NC(=O)[C@@H](CC(=O)O)NC1=O",
    "Target": "Atrial natriuretic peptide receptor 1 (Oryctolagus cuniculus)",
    "KL (nM)": 200
  },
  {
    "Smiles repr": "CC[C@H](C)[C@@H]1NC(=O)[C@@H](CCCN=C(N)N)NC(=O)CNC(=O)CNC(=O)[C@@H](C2CCCCC2)NC(=O)[C@H](NC(=O)[C@H](N)CCCN=C(N)N)CSSC[C@H](C(=O)O)NC(=O)[C@@H](CCCN=C(N)N)NC(=O)[C@H](C)NC(=O)[C@@H]([C@@H](C)CC)NC(=O)[C@H](CCCN=C(N)N)NC(=O)[C@@H](CC(=O)O)NC1=O",
    "Target": "Atrial natriuretic peptide receptor 1 (Oryctolagus cuniculus)",
    "KL (nM)": 280
  },
  {
    "Smiles repr": "CC[C@H](C)[C@@H]1NC(=O)[C@@H](CCCN=C(N)N)NC(=O)CNC(=O)CNC(=O)[C@@H](C2CCCCC2)NC(=O)[C@H](N)CSSC[C@H](C(N)=O)NC(=O)[C@@H](CCCN=C(N)N)NC(=O)[C@H](Cc2ccccc2)NC(=O)[C@@H]([C@@H](C)CC)NC(=O)[C@H](C)NC(=O)[C@@H](CC(=O)O)NC1=O",
    "Target": "Atrial natriuretic peptide receptor 1 (Oryctolagus cuniculus)",
    "KL (nM)": 8900
  }
]
